The origin of these recorded values is ChEMBL document CHEMBL4842346.

# Tested on: Candida albicans
# test: Antifungal activity against fluconazole resistant Candida albicans CaR assessed as inhibition of fungal growth by NCCLS protocol based method
# Assay type: functional
assay.metric: MIC (µg/mL)
Numbers only, in µg/mL.

The following compounds have reported results that may help.
>  <compound>
Fc1ccc(C2(Cn3cncn3)COC(c3ccc(-c4cccc(F)c4)cc3)=N2)cc1 (centres undefined)

>  <MIC, µg/mL>
0.5

$$$$
>  <compound>
Fc1cccc(-c2ccc(C3=NC(Cn4cncn4)(c4ccc(F)cc4F)CO3)cc2)c1 (centres undefined)

>  <MIC, µg/mL>
0.5

$$$$
>  <compound>
Fc1ccccc1-c1ccc(C2=NC(Cn3cncn3)(c3ccc(Cl)cc3)CO2)cc1 (centres undefined)

>  <MIC, µg/mL>
0.25

$$$$

Batch of 2 compounds: report MIC for each.
1. Fc1ccc(C2(Cn3cncn3)COC(c3ccc(-c4ccccc4F)cc3)=N2)cc1 (centres undefined)
2. Fc1ccc(C2(Cn3cncn3)COC(c3ccc(-c4ccccc4F)cc3)=N2)c(F)c1 (centres undefined)

output:
1: 0.25; 2: 0.5

Value of MIC reported for the compound Fc1cccc(-c2ccc(C3=NC(Cn4cncn4)(c4ccc(Cl)cc4)CO3)cc2)c1 (centres undefined) is 0.25

* * *

# test: Intrinsic microsomal clearance in human liver microsomes at 100 uM in the presence of NADPH measured up to 60 mins by LC-MS/MS analysis
# Assay type: ADME, Microsome
# condition.details: read-out: CLH
assay.metric: microsomal CLint at 100 µM (µL/min/mg)
Numbers only, in µL/min/mg.

Per the record, Fc1ccc(C2(Cn3cncn3)COC(c3ccc(-c4cccc(F)c4)cc3)=N2)cc1 (configuration not stated) has microsomal CLint at 100 µM of 23.5

* * *

# System: Candida tropicalis
# test: Antifungal activity against Candida tropicalis GIM2.183 assessed as inhibition of fungal growth by NCCLS protocol based method
# Assay type: functional
Give MIC for every item shown.
Numbers only, in µg/mL.

>  <compound>
c1ccc(CC2(Cn3ccnc3)COC(c3ccc(-c4ccccc4)cc3)=N2)cc1 (stereo not given)

>  <assay.metric>
MIC

>  <unit.text>
µg/mL

>  <observed.value>
0.5

$$$$

Then there is this compound:
Memo: Fc1cccc(-c2ccc(C3=NC(Cn4cncn4)(c4ccc(F)cc4F)CO3)cc2)c1 (stereo not given) , reported MIC: 0.06

* * *

# test: Metabolic stability in human liver microsomes assessed as compound remaining at 100 uM measured after 60 mins in the presence of NADPH by LC-MS/MS analysis
# Type: ADME, Microsome
# condition.details: read-out: Stabilty
For each record, write down the corresponding remaining at 1 h, 100 µM.
One number for each entry, in %.

Would you mind giving remaining at 1 h, 100 µM for every molecule in the list below?
1. Fc1ccc(C2(Cn3cncn3)COC(c3ccc(-c4ccccc4F)cc3)=N2)cc1 (configuration not stated)
2. Fc1ccc(C2(Cn3cncn3)COC(c3ccc(-c4cccc(F)c4)cc3)=N2)cc1 (configuration not stated)

output:
1. 75.4
2. 47.1

* * *

For each entry below, report its MIC value.
# Tested on: Candida tropicalis
# test: Antifungal activity against Candida tropicalis GIM2.183 assessed as inhibition of fungal growth by NCCLS protocol based method
# Format: functional

>  <molecule>
FC(F)(F)Oc1ccc(-c2ccc(C3=NC(Cn4cncn4)(c4ccccc4)CO3)cc2)cc1 (stereo not drawn)

>  <observed.value>
> 16 µg/mL

$$$$
>  <molecule>
CCC(C)n1ncn(-c2ccc(N3CCN(c4ccc(OCC5COC(Cn6cncn6)(c6ccc(Cl)cc6Cl)O5)cc4)CC3)cc2)c1=O (stereo not drawn)

>  <observed.value>
< 0.125 µg/mL

$$$$
>  <molecule>
FC(F)(F)c1ccc(-c2ccc(C3=NC(Cn4cncn4)(c4ccccc4)CO3)cc2)cc1 (stereo not drawn)

>  <observed.value>
> 16 µg/mL

$$$$
>  <molecule>
Clc1ccccc1-c1ccc(C2=NC(Cn3cncn3)(c3ccccc3)CO2)cc1 (stereo not drawn)

>  <observed.value>
> 16 µg/mL

$$$$
>  <molecule>
FC(F)(c1ccccc1)C1(Cn2ccnc2)COC(c2ccc(-c3ccccc3)cc2)=N1 (stereo not drawn)

>  <observed.value>
< 0.125 µg/mL

$$$$

Okay, here is my list. What is MIC for each of these?
1. c1ccc(-c2ccc(C3=NC(Cn4ccnc4)C(c4ccccc4)O3)cc2)cc1 (stereo not drawn)
2. O=C(c1ccccc1)C1(Cn2ccnc2)COC(c2ccc(-c3ccccc3)cc2)=N1 (stereo not drawn)
3. Fc1cccc(-c2ccc(C3=NC(Cn4cncn4)(c4cc(F)cc(F)c4)CO3)cc2)c1 (stereo not drawn)

output:
["> 64 µg/mL", "> 64 µg/mL", "> 16 µg/mL"]
